Target: Human complement C1s enzyme (Homo sapiens)
Construct: purified from human serum, Complement Technology, Inc; purchased Complement Technology, Inc; host or cells: human serum (plasma-derived natural protein)
Sequence (P09871 438-688 limits assumed): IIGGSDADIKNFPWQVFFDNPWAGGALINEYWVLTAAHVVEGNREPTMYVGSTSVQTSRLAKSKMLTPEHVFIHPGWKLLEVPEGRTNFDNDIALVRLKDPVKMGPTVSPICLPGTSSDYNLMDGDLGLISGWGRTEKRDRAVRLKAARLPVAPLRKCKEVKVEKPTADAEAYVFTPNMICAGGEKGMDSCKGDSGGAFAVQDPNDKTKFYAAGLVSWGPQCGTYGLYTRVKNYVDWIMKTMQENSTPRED
Sequence (P09871 16-437 partner limits assumed): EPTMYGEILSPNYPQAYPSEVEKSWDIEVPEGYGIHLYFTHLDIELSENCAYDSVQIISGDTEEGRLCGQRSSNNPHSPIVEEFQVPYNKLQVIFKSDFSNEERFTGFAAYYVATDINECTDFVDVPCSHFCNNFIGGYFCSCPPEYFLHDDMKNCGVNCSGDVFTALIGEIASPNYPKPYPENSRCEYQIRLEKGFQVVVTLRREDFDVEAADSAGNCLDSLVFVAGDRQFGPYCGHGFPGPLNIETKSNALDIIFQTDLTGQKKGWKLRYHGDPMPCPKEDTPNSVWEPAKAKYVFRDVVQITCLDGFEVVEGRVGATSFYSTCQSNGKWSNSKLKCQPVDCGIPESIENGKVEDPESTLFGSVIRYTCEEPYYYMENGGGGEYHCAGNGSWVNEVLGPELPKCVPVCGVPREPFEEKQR
Test: Human C1s Enzyme Assay
Format: biochemical
Conditions: Table 2; C1s purified from human serum, 1.16 nM; substrate Z-L-Lys-SBzl; read-out: C1s Protease Activity
pIC50: −log10 of the molar value.
Recorded pIC50 values for a group of compounds are listed next.

# count of solved cases: 5
{"compound": "N=C(N)c1csc(CNC(=O)[C@@H]2CCCN2C(=O)NNC(=O)c2ccc(Oc3ccccc3)cc2)c1 [Compound 59]", "pIC50": "6.00 to 7.00"}
{"compound": "N=C(N)c1csc(CNC(=O)[C@@H]2CCCN2C(=O)COCc2ccc(Oc3ccccc3)cc2)c1 [Compound 38]", "pIC50": "6.00 to 7.00"}
{"compound": "NCc1csc(CNC(=O)[C@@H]2CCCN2C(=O)CNC(=O)c2ccc(Oc3ccccc3)cc2)c1 [Compound 55]", "pIC50": "< 6.00"}
{"compound": "N=C(N)c1csc(CNC(=O)[C@@H]2CCCN2C(=O)CNC(=O)CCCOc2ccccc2)c1 [Compound 67]", "pIC50": "> 7.00"}
{"compound": "CCCOc1ccc(C(=O)NCC(=O)N2CCC[C@H]2C(=O)NCc2cc(C(=N)N)cs2)cc1 [Compound 77]", "pIC50": "> 7.00"}

### Prompt Dear colleague, I am looking for the recorded pIC50 of the following compound: CC(c1ccccc1)c1ccc(C(=O)NCC(=O)N2CCC[C@H]2C(=O)NCc2cc(C(=N)N)cs2)cc1 (stereo partly shown) [Compound 58]
### Response > 7.00

### Prompt Can you handle CCCc1ccc(C(=O)NCC(=O)N2CCC[C@H]2C(=O)NCc2cc(C(=N)N)cs2)cc1 [Compound 72] next?
### Response > 7.00

### Prompt Follow-up item: CCCCc1ccc(C(=O)NCC(=O)N2CCC[C@H]2C(=O)NCc2cc(C(=N)N)cs2)cc1 [Compound 73]
### Response > 7.00

### Prompt Note, next up: N=C(N)c1csc(CNC(=O)[C@@H]2CCCN2C(=O)CNC(=O)CCCCc2ccccc2)c1 [Compound 80]
### Response > 7.00

### Prompt Input C=C(CCC(=O)N1CCC[C@H]1C(=O)NCc1cc(C(=N)N)cs1)c1ccc(Oc2ccccc2)cc1 [Compound 40]
### Response 6.00 to 7.00
